# Experimental Target: human TLR8 (Homo sapiens)
# Construct: expressed in transfected cells; host or cells: HEK293 cells, transient transfection with TLR8 plasmid and NFκB-luc plasmid
# Sequence (Q9NR97 27-1041): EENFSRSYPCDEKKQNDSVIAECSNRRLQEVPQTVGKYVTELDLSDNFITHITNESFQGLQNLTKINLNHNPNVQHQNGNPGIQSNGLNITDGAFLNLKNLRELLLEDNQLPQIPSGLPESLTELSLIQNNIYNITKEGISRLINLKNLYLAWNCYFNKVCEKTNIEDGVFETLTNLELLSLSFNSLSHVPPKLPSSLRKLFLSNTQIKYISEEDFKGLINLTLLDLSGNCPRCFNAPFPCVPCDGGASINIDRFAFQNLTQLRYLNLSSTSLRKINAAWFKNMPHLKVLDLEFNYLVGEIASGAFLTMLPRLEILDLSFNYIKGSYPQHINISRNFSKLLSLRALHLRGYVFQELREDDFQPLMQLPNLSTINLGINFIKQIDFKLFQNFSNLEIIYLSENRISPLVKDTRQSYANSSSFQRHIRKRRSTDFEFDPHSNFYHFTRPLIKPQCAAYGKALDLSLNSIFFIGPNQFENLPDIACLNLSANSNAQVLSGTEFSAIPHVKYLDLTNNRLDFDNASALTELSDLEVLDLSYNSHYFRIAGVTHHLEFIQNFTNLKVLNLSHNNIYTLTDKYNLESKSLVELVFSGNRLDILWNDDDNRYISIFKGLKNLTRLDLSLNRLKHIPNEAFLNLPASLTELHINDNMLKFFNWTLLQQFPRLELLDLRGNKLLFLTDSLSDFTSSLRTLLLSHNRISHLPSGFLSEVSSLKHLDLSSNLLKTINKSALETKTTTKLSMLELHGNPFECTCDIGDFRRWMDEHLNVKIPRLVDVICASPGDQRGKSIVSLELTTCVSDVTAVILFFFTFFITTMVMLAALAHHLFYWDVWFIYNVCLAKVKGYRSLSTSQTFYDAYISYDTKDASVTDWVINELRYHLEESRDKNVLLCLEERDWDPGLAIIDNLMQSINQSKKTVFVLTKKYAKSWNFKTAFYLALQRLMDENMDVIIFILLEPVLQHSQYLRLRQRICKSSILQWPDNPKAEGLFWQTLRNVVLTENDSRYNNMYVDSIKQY
# Test Name: TLR8 cellular reporter assay (HEK293, NFκB-luc)
# Assay type: cell-based
# Assay Conditions: HEK293 cells transfected with CMV-TLR8 and NFκB-luc, 6 hours incubation; lowest effective concentration
Outcome Measure: TLR8 LEC

Consider the reported TLR8 LEC for these molecules:
Fill in: TLR8 LEC on human TLR8 (Homo sapiens), entry `CC(C)OCCNc1nc(N)nc2ccn(Cc3ccccn3)c12`
>25 µM

Fill in: TLR8 LEC on human TLR8 (Homo sapiens), entry `CCCC[C@@H](CCO)Nc1nc(N)nc2ccn(Cc3ccccn3)c12`
2.84 µM

Fill in: TLR8 LEC on human TLR8 (Homo sapiens), entry `CCCC[C@@H](CO)Nc1nc(N)nc2ccn(Cc3cccnn3)c12`
6.57 µM

Fill in: TLR8 LEC on human TLR8 (Homo sapiens), entry `CCCC[C@@H](CCO)Nc1nc(N)nc2c(F)cn(Cc3ccccc3)c12`
3.26 µM

Fill in: TLR8 LEC on human TLR8 (Homo sapiens), entry `COCCNc1nc(N)nc2ccn(Cc3cccc4c3OCC4)c12`
>25 µM

Fill in: TLR8 LEC on human TLR8 (Homo sapiens), entry `COC[C@H](C)Nc1nc(N)nc2ccn(Cc3csc(C)n3)c12`
15 µM

Fill in: TLR8 LEC on human TLR8 (Homo sapiens), entry `COc1ccccc1Cn1ccc2nc(N)nc(NCc3ncc(C)s3)c21`
>25 µM

Fill in: TLR8 LEC on human TLR8 (Homo sapiens), entry CCCCNc1nc(N)nc2ccn(Cc3cc(OC4CCOC4)c(OC)cn3)c12 (centres unmarked)
>25 µM

Others:
Fill in: TLR8 LEC on human TLR8 (Homo sapiens), entry `CCCC[C@@H](CO)Nc1nc(N)nc2ccn(Cc3c(OC)cccc3OC)c12`
0.08 µM

Fill in: TLR8 LEC on human TLR8 (Homo sapiens), entry `Cc1cnc(CNc2nc(N)nc3ccn(Cc4ccccn4)c23)o1`
>25 µM

Fill in: TLR8 LEC on human TLR8 (Homo sapiens), entry `CCCCNc1nc(N)nc2ccn(Cc3ccc(F)c(Cl)c3)c12`
>25 µM

Fill in: TLR8 LEC on human TLR8 (Homo sapiens), entry `Cc1ccc(Cn2ccc3nc(N)nc(NCc4cc(C)on4)c32)nc1`
>25 µM

Fill in: TLR8 LEC on human TLR8 (Homo sapiens), entry `CCC[C@@H](CCO)Nc1nc(N)nc2ccn(Cc3cscn3)c12`
10.14 µM

Fill in: TLR8 LEC on human TLR8 (Homo sapiens), entry CC1CC1CNc1nc(N)nc2ccn(Cc3ccccc3)c12 (centres unmarked)
>25 µM

Fill in: TLR8 LEC on human TLR8 (Homo sapiens), entry `Cc1nc(CNc2nc(N)nc3ccn(Cc4cnccn4)c23)no1`
>25 µM

---

# Experimental Target: human TLR8 (Homo sapiens, UniProt Q9NR97)
# Construct: expressed in transfected cells; host or cells: HEK293 cells, transient transfection with TLR8 plasmid and NFκB-luc plasmid
# Test Name: TLR8 cellular reporter assay (HEK293, NFκB-luc)
# Format: cell-based
# Assay Conditions: HEK293 cells transfected with CMV-TLR8 and NFκB-luc, 6 hours incubation; lowest effective concentration
Outcome Measure: TLR8 LEC

Quickly give me recorded TLR8 LEC for `CCCC[C@@H](CCO)Nc1nc(N)nc2ccn(Cc3ccncc3)c12`
24.61 µM

Quickly give me recorded TLR8 LEC for CCCCNc1nc(N)nc2c(C)cn(Cc3ccccc3)c12 [Compound 54]
>25 µM

Quickly give me recorded TLR8 LEC for `Cn1cc(CNc2nc(N)nc3ccn(Cc4ccccn4)c23)nn1`
>25 µM

Quickly give me recorded TLR8 LEC for `COc1ccnc(Cn2ccc3nc(N)nc(NCc4cc(C)on4)c32)c1OC`
>25 µM

Quickly give me recorded TLR8 LEC for `Cc1cnc(CNc2nc(N)nc3ccn(Cc4ccccn4)c23)s1`
23 µM

Others:
Quickly give me recorded TLR8 LEC for `COc1cccnc1Cn1ccc2nc(N)nc(NCc3ncc(C)o3)c21`
>25 µM

Quickly give me recorded TLR8 LEC for `CCC[C@@H](CCO)Nc1nc(N)nc2c(F)cn(Cc3ccccc3)c12`
>25 µM

Quickly give me recorded TLR8 LEC for `COc1ccccc1Cn1ccc2nc(N)nc(NCc3noc(C)n3)c21`
7.7 µM

Quickly give me recorded TLR8 LEC for `COCCNc1nc(N)nc2ccn(Cc3cc(OC)ccn3)c12`
>25 µM

---

# Experimental Target: human TLR8 (Homo sapiens, UniProt Q9NR97)
# Construct: expressed in transfected cells; host or cells: HEK293 cells, transient transfection with TLR8 plasmid and NFκB-luc plasmid
# Test Name: TLR8 cellular reporter assay (HEK293, NFκB-luc)
# Assay type: cell-based
# Assay Conditions: HEK293 cells transfected with CMV-TLR8 and NFκB-luc, 6 hours incubation; lowest effective concentration
TLR8 LEC values by entry

Consider the reported TLR8 LEC for these compounds:
Quickly give me recorded TLR8 LEC for `CCCCNc1nc(N)nc2cc(F)n(Cc3ccccc3)c12`
>25 µM

Quickly give me recorded TLR8 LEC for `CCCCNc1nc(N)nc2ccn(Cc3ccccc3OC(F)F)c12`
>25 µM

Others:
Quickly give me recorded TLR8 LEC for COCCn1ccc2nc(N)nc(NC(C)c3ccccn3)c21 (centres unmarked)
>25 µM

Quickly give me recorded TLR8 LEC for `Cc1nc(CNc2nc(N)nc3ccn(Cc4ncccn4)c23)no1`
>25 µM

Quickly give me recorded TLR8 LEC for `CCCCNc1nc(N)nc2ccn(Cc3nccc4ccccc34)c12`
>25 µM

---

TLR8 LEC values by entry
# Experimental Target: human TLR8 (Homo sapiens, UniProt Q9NR97)
# Construct: expressed in transfected cells; host or cells: HEK293 cells, transient transfection with TLR8 plasmid and NFκB-luc plasmid
# Test Name: TLR8 cellular reporter assay (HEK293, NFκB-luc)
# Type: cell-based
# Assay Conditions: HEK293 cells transfected with CMV-TLR8 and NFκB-luc, 6 hours incubation; lowest effective concentration

Consider the reported TLR8 LEC for these compounds:
Quickly give me recorded TLR8 LEC for CCCCNc1nc(N)nc2c(F)cn(Cc3ccccc3)c12 [Compound 93]
>25 µM

Quickly give me recorded TLR8 LEC for CCNc1nc(N)nc2ccn(Cc3ccccc3)c12 [Compound 35]
>25 µM

Quickly give me recorded TLR8 LEC for CCCCNc1nc(N)nc2ccn(Cc3ccccc3OC)c12 [Compound 69]
0.71 µM

Quickly give me recorded TLR8 LEC for Cc1coc(CNc2nc(N)nc3ccn(Cc4ccccn4)c23)n1 [Compound 214]
>25 µM

Quickly give me recorded TLR8 LEC for COCCNc1nc(N)nc2ccn(Cc3ccncc3OC)c12 [Compound 121]
>25 µM

Quickly give me recorded TLR8 LEC for Cc1cc(CNc2nc(N)nc3ccn(Cc4cn5ccccc5n4)c23)no1 [Compound 157]
>25 µM

Quickly give me recorded TLR8 LEC for CC(C)c1cc(CNc2nc(N)nc3ccn(Cc4ccccn4)c23)no1 [Compound 127]
>25 µM

Quickly give me recorded TLR8 LEC for COCCNc1nc(N)nc2ccn(Cc3ncc(C)c(OC)c3C)c12 [Compound 147]
>25 µM

Quickly give me recorded TLR8 LEC for CCC[C@@H](CCO)Nc1nc(N)nc2ccn(Cc3c(OC)cccc3OC)c12 [Compound 102]
0.14 µM

Quickly give me recorded TLR8 LEC for CCCCNc1nc(N)nc2ccn(Cc3ccccc3-c3ccccc3)c12 [Compound 7]
>25 µM

Others:
Quickly give me recorded TLR8 LEC for COc1cc(OC)nc(Cn2ccc3nc(N)nc(NCc4noc(C)n4)c32)n1 [Compound 209]
>25 µM

Quickly give me recorded TLR8 LEC for COc1cccnc1Cn1ccc2nc(N)nc(NCc3noc(C)n3)c21 [Compound 196]
12.6 µM

Quickly give me recorded TLR8 LEC for Cc1cc(CNc2nc(N)nc3ccn(Cc4ccccn4)c23)nn1C [Compound 187]
>25 µM

Quickly give me recorded TLR8 LEC for Cc1cc(CNc2nc(N)nc3ccn(Cc4ccccn4)c23)on1 [Compound 184]
>25 µM

Quickly give me recorded TLR8 LEC for CCCCNc1nc(N)nc2ccn(Cc3cccs3)c12 [Compound 73]
>25 µM

Quickly give me recorded TLR8 LEC for CCCCNc1nc(N)nc2ccn(Cc3ccc(F)cc3)c12 [Compound 42]
>25 µM
